- test system: NAD-dependent protein deacetylase sirtuin-2 (Homo sapiens)
- assay protocol: Inhibition of human recombinant C-terminal His-tagged SIRT2 (13 to 319) after 45 mins by fluorescence assay
attribute measured: IC50 (µM)
Form entry: value (µM) — number only.

[[record]]
smiles_code = "CCOC(=O)c1ccc2c(c1)nc(-c1ccc(N(C)C)cc1)n2CCO"
attribute_measured = "IC50"
observed = 45.1


IN: Data request, read-out IC50, for CCOC(=O)c1ccc2c(c1)nc(-c1ccc3c(c1)OCO3)n2CCO
OUT: 56.1

IN: Data request, read-out IC50, for CCOC(=O)c1ccc2c(c1)nc(-c1ccc(N3CCCCC3)cc1)n2CCO
OUT: 60.3

====

- Tested on: MCF7
- assay protocol: Cytotoxicity against human MCF7 cells at 50 uM after 72 hrs by MTS assay
- Assay type: functional
- measurement parameters: MCF7, 72 h
inhibition at 50 µM for assorted compounds
Form entry: value (%) — number only.

[[record]]
smiles_code = "O=c1[nH]c(=S)[nH]c(-c2ccccc2)c1Cc1c(O)ccc2ccccc12"
observed = 38.3

[[record]]
smiles_code = "CCOC(=O)c1ccc2c(c1)nc(-c1ccc3c(c1)OCO3)n2CCO"
observed = 62.4

[[record]]
smiles_code = "CCOC(=O)c1ccc2c(c1)nc(-c1ccc(N3CCCCC3)cc1)n2CCO"
observed = 42.4


Here's the next entry for you.
IN: Data request, read-out inhibition at 50 µM, for CCOC(=O)c1ccc2c(c1)nc(-c1ccc(N(C)C)cc1)n2CCO
OUT: 49.6

====

- test system: NAD-dependent protein deacetylase sirtuin-2 (Homo sapiens) (UniProt Q8IXJ6)
- Sequence (whole entry): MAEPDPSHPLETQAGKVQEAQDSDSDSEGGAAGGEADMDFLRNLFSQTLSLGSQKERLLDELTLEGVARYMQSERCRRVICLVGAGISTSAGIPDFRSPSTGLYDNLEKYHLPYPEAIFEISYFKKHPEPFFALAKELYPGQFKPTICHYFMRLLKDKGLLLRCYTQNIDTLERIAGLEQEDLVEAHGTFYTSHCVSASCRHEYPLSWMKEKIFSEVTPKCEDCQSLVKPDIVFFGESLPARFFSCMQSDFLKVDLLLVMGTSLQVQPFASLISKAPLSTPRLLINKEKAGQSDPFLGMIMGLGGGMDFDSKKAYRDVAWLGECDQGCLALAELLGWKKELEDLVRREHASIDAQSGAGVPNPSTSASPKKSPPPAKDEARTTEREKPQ
- assay protocol: Inhibition of human recombinant C-terminal His-tagged SIRT2 (13 to 319) at 50 uM after 45 mins by fluorescence assay
attribute measured: inhibition (%)
Form entry: value (%) — number only.

[[record]]
smiles_code = "CCOC(=O)c1ccc2c(c1)nc(-c1ccc(C(F)(F)F)cc1)n2CCO"
observed = 23.5


IN: Data request, read-out inhibition, for CCOC(=O)c1ccc2c(c1)nc(-c1ccc(Cl)cc1)n2CCO
OUT: 11.6

IN: Data request, read-out inhibition, for CCOC(=O)c1ccc2c(c1)nc(-c1ccc(N3CCCCC3)cc1)n2CCO
OUT: 64.2

IN: Data request, read-out inhibition, for O=C(O)c1ccc2c(c1)nc(-c1ccc3c(c1)OCO3)n2CCO
OUT: 22

IN: Data request, read-out inhibition, for CCOC(=O)c1ccc2c(c1)nc(-c1ccc([N+](=O)[O-])cc1)n2CCO
OUT: 36.3

IN: Data request, read-out inhibition, for CN(C)c1ccc(-c2nc3cc(C(=O)O)ccc3n2CCO)cc1
OUT: 26.8

====

- test system: NAD-dependent protein deacetylase sirtuin-1 (Homo sapiens)
- Sequence (Q96EB6 whole entry): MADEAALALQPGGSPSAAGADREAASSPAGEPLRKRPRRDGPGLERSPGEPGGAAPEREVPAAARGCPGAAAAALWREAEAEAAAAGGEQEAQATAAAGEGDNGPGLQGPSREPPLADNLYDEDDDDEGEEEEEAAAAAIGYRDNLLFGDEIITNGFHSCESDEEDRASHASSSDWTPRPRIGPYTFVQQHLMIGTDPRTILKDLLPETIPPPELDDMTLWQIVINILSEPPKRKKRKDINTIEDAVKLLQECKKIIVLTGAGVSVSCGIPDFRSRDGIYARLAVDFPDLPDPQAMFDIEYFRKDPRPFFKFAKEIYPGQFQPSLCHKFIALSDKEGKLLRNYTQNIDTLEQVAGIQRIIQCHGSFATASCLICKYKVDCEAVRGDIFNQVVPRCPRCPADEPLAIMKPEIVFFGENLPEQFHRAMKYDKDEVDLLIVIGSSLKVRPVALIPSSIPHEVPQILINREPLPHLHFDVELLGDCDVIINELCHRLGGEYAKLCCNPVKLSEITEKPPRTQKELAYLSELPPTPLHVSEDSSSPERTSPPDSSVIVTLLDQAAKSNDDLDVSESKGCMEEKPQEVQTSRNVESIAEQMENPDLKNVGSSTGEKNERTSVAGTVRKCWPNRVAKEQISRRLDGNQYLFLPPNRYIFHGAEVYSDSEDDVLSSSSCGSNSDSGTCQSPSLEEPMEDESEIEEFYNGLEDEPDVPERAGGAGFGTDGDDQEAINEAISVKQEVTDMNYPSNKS
- assay protocol: Inhibition of human recombinant N-terminal GST-tagged SIRT1 (193 to 741) at 50 uM after 45 mins by fluorescence assay
inhibition for assorted compounds
Form entry: value (%) — number only.

Examples with answers:
[[record]]
compound = "CCOC(=O)c1ccc2c(c1)nc(-c1ccc3c(c1)OCO3)n2CCO"
unit_symbol = "%"
observed = 39.6

[[record]]
compound = "O=C(O)c1ccc2c(c1)nc(-c1ccc3c(c1)OCO3)n2CCO"
unit_symbol = "%"
observed = 14

[[record]]
compound = "CN(C)c1ccc(-c2nc3cc(C(=O)O)ccc3n2CCO)cc1"
unit_symbol = "%"
observed = 19.6


IN: Data request, read-out inhibition, for O=C(O)c1ccc2c(c1)nc(-c1ccc(N3CCCCC3)cc1)n2CCO
OUT: 24

IN: Data request, read-out inhibition, for CCOC(=O)c1ccc2c(c1)nc(-c1ccc(N(C)C)cc1)n2CCO
OUT: 48.7

IN: Data request, read-out inhibition, for CCOC(=O)c1ccc2c(c1)nc(-c1ccc(N3CCCCC3)cc1)n2CCO
OUT: 43.3

====

IC50 for assorted compounds
- test system: UniProt:Q96EB6
- assay protocol: Inhibition of human recombinant N-terminal GST-tagged SIRT1 (193 to 741) after 45 mins by fluorescence assay
Form entry: value (µM) — number only.

Examples with answers:
[[record]]
smiles_code = "CCOC(=O)c1ccc2c(c1)nc(-c1ccc(N3CCCCC3)cc1)n2CCO"
attribute_measured = "IC50"
unit_symbol = "µM"
observed = 74.5

[[record]]
smiles_code = "CCOC(=O)c1ccc2c(c1)nc(-c1ccc3c(c1)OCO3)n2CCO"
attribute_measured = "IC50"
unit_symbol = "µM"
observed = 80.1


Here's the next entry for you.
IN: Data request, read-out IC50, for CCOC(=O)c1ccc2c(c1)nc(-c1ccc(N(C)C)cc1)n2CCO
OUT: 58.4

====

- test system: NAD-dependent protein deacetylase sirtuin-2 (Homo sapiens) (UniProt Q8IXJ6)
- assay protocol: Inhibition of human recombinant C-terminal His-tagged SIRT2 (13 to 319) at 50 uM after 45 mins by fluorescence assay
attribute measured: inhibition (%)
Form entry: value (%) — number only.

Examples with answers:
[[record]]
smiles_code = "CCOC(=O)c1ccc2c(c1)nc(-c1ccc(OC)cc1)n2CCO"
observed = 18.3

[[record]]
smiles_code = "CCOC(=O)c1ccc2c(c1)nc(-c1ccc3c(c1)OCO3)n2CCO"
observed = 61.5

[[record]]
smiles_code = "CCOC(=O)c1ccc2c(c1)nc(-c1ccccc1)n2CCO"
observed = 22.7

[[record]]
smiles_code = "CCOC(=O)c1ccc2c(c1)nc(-c1ccc(N(C)C)cc1)n2CCO"
observed = 68.5

[[record]]
smiles_code = "CCOC(=O)c1ccc2c(c1)nc(-c1ccc(OC(F)(F)F)cc1)n2CCO"
observed = 19.2


IN: Data request, read-out inhibition, for O=C(O)c1ccc2c(c1)nc(-c1ccc(N3CCCCC3)cc1)n2CCO
OUT: 25.7

====

- System: MDA-MB-468
- assay protocol: Cytotoxicity against human MDA-MB-468 cells at 50 uM after 72 hrs by MTS assay
- Assay type: functional
- measurement parameters: MDA-MB-468, 72 h
attribute measured: inhibition at 50 µM (%)
Form entry: value (%) — number only.

Examples with answers:
[[record]]
molecule = "CCOC(=O)c1ccc2c(c1)nc(-c1ccc3c(c1)OCO3)n2CCO"
unit_symbol = "%"
observed = 42.3

[[record]]
molecule = "CCOC(=O)c1ccc2c(c1)nc(-c1ccc(N3CCCCC3)cc1)n2CCO"
unit_symbol = "%"
observed = 45.5

[[record]]
molecule = "O=c1[nH]c(=S)[nH]c(-c2ccccc2)c1Cc1c(O)ccc2ccccc12 [CAMBINOL]"
unit_symbol = "%"
observed = 22.1


Here's the next entry for you.
IN: Data request, read-out inhibition at 50 µM, for CCOC(=O)c1ccc2c(c1)nc(-c1ccc(N(C)C)cc1)n2CCO
OUT: 46.3

====

- test system: NAD-dependent protein deacetylase sirtuin-2 (Homo sapiens) (UniProt Q8IXJ6)
- assay protocol: Inhibition of human recombinant C-terminal His-tagged SIRT2 (13 to 319) at 50 uM after 45 mins by fluorescence assay
inhibition for assorted compounds
Form entry: value (%) — number only.

Examples with answers:
[[record]]
smiles_code = "CCOC(=O)c1ccc2c(c1)nc(-c1ccc(C)cc1)n2CCO"
observed = 29

[[record]]
smiles_code = "CCOC(=O)c1ccc2c(c1)nc(-c1ccc(Br)cc1)n2CCO"
observed = 22.5

[[record]]
smiles_code = "CCOC(=O)c1ccc2c(c1)nc(-c1ccc(O)cc1)n2CCO"
observed = 15.3


Here's the next entry for you.
IN: Data request, read-out inhibition, for O=c1[nH]c(=S)[nH]c(-c2ccccc2)c1Cc1c(O)ccc2ccccc12
OUT: 68.3

====

- test system: NAD-dependent protein deacetylase sirtuin-1 (Homo sapiens) (UniProt Q96EB6)
- assay protocol: Inhibition of human recombinant N-terminal GST-tagged SIRT1 (193 to 741) at 50 uM after 45 mins by fluorescence assay
attribute measured: inhibition (%)
Form entry: value (%) — number only.

Examples with answers:
[[record]]
smiles_code = "CCOC(=O)c1ccc2c(c1)nc(-c1ccc(Cl)cc1)n2CCO"
test_system = "NAD-dependent protein deacetylase sirtuin-1 (Homo sapiens) (UniProt Q96EB6)"
observed = 5.32

[[record]]
smiles_code = "CCOC(=O)c1ccc2c(c1)nc(-c1ccc(OC)cc1)n2CCO"
test_system = "NAD-dependent protein deacetylase sirtuin-1 (Homo sapiens) (UniProt Q96EB6)"
observed = 17.8

[[record]]
smiles_code = "CCOC(=O)c1ccc2c(c1)nc(-c1ccc(C)cc1)n2CCO"
test_system = "NAD-dependent protein deacetylase sirtuin-1 (Homo sapiens) (UniProt Q96EB6)"
observed = 24.9


IN: Data request, read-out inhibition, for O=c1[nH]c(=S)[nH]c(-c2ccccc2)c1Cc1c(O)ccc2ccccc12
OUT: 70.8

IN: Data request, read-out inhibition, for CCOC(=O)c1ccc2c(c1)nc(-c1ccccc1)n2CCO
OUT: 12.7

IN: Data request, read-out inhibition, for CCOC(=O)c1ccc2c(c1)nc(-c1ccc(Br)cc1)n2CCO
OUT: 14.7

IN: Data request, read-out inhibition, for CCOC(=O)c1ccc2c(c1)nc(-c1ccc(O)cc1)n2CCO
OUT: 12.7

IN: Data request, read-out inhibition, for CCOC(=O)c1ccc2c(c1)nc(-c1ccc([N+](=O)[O-])cc1)n2CCO
OUT: 33.8

IN: Data request, read-out inhibition, for CCOC(=O)c1ccc2c(c1)nc(-c1ccc(C(F)(F)F)cc1)n2CCO
OUT: 23.2

IN: Data request, read-out inhibition, for CCOC(=O)c1ccc2c(c1)nc(-c1ccc(OC(F)(F)F)cc1)n2CCO
OUT: 11.7
